# Test system: MRP1 cells, doxorubicin viability shift, 10 uM compound
# EXPERIMENT_NOTES: viability protection against doxorubicin, MRP-1 line – cell-based, doxorubicin EC50 shift, dose response (AID 844)
Below, each of the compounds is paired with its reported fold increase in Dox EC50 value.
API doc: respond with a numeric literal and nothing else, no unit.

[
  {
    "COMPOUND": "Cc1nc(N2CCN(Cc3ccccc3)CC2)nc2c1C(=O)CC(c1ccco1)C2 (stereo not given)",
    "ENDPOINT": "fold increase in Dox EC50",
    "MEASURED_NUMBER": 0.75
  }
]

input: Consider the compound Cn1c(=O)oc2cc(S(=O)(=O)N3CCCC(C(=O)NCC4COc5ccccc5O4)C3)ccc21 (stereo not given) and give its measured fold increase in Dox EC50.
output: 0.53

input: Consider the compound CC(O)(CS(=O)(=O)Cc1ccccc1)C(=O)Nc1ccc(C(F)(F)F)cc1 (stereo not given) and give its measured fold increase in Dox EC50.
output: 1.27

input: Consider the compound CC(C)c1ccc(CNc2cc(N3CCCC3)ccc2[N+](=O)[O-])cc1 and give its measured fold increase in Dox EC50.
output: 0.81

input: Consider the compound COc1ccc(Cl)cc1N1C(=O)C2CCCN2C1c1ccc(F)c(F)c1 (stereo not given) and give its measured fold increase in Dox EC50.
output: 0.85

----------
Below, each of the compounds is paired with its reported fold increase in Dox EC50 value.
# Tested on: MRP1 cells, doxorubicin viability shift, 10 uM compound
# EXPERIMENT_NOTES: viability protection against doxorubicin, MRP-1 line – cell-based, doxorubicin EC50 shift, dose response (AID 844)
API doc: respond with a numeric literal and nothing else, no unit.

[
  {
    "COMPOUND": "Cc1c(OCC(=O)OC(C)(C)C)ccc2c3c(c(=O)oc12)CCC3",
    "MEASURED_NUMBER": 1.04
  }
]

input: Consider the compound CN(Cc1ccccc1)c1ncnc2c1cnn2-c1ccccc1 and give its measured fold increase in Dox EC50.
output: 0.54

input: Consider the compound O=c1cc(CNc2ccc(Br)cc2)nc2sccn12 and give its measured fold increase in Dox EC50.
output: 0.99

----------
# Test system: MRP1 cells, doxorubicin viability shift, 10 uM compound
# EXPERIMENT_NOTES: viability protection against doxorubicin, MRP-1 line – cell-based, doxorubicin EC50 shift, dose response (AID 844)
Below, each of the compounds is paired with its reported fold increase in Dox EC50 value.
API doc: respond with a numeric literal and nothing else, no unit.

Here's what some known entries look like.
[
  {
    "COMPOUND": "Cc1nc(=O)c(-c2ccccc2)c(C)n1-c1ccc(S(N)(=O)=O)cc1",
    "MEASURED_NUMBER": 1.53
  },
  {
    "COMPOUND": "Fc1cccc(-c2cc3nc(-c4ccccc4)cc(N4CCC5(CC4)OCCO5)n3n2)c1",
    "MEASURED_NUMBER": 0.56
  },
  {
    "COMPOUND": "C=CCn1c(CNc2ccccc2)nnc1SCC(=O)N/N=C/c1ccccc1O",
    "MEASURED_NUMBER": 0.58
  },
  {
    "COMPOUND": "Cc1ccccc1NC(=O)CSC1=NCCN1",
    "MEASURED_NUMBER": 0.69
  },
  {
    "COMPOUND": "CCCCc1ccc(NC(=O)c2c(C)noc2C)cc1",
    "MEASURED_NUMBER": 1.23
  }
]

input: Consider the compound CC(Oc1ccc(Cl)cc1Cl)C(=O)NC1CCSC1=O (stereo unspecified) and give its measured fold increase in Dox EC50.
output: 1.98
